Cited source for all entries: patent US6455700B1

The entries below are paired with their reported Ki.
- test-system: NK1 receptor (substance P receptor) (Homo sapiens, UniProt P25103)
- Construct: expressed in transfected cells; host or cells: human lymphoblastoma cells (IM-9)
- Sequence (P25103 whole entry): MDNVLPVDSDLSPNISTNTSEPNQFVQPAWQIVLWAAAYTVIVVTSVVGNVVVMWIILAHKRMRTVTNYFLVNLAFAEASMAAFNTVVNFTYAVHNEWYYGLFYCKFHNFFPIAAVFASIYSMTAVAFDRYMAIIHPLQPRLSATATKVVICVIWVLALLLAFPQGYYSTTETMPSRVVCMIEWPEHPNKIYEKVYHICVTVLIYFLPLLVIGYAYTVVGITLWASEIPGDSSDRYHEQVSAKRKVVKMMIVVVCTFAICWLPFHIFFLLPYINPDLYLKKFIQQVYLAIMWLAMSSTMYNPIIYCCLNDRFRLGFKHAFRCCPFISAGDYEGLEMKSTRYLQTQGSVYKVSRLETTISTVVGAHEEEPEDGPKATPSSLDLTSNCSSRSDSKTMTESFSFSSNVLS
- test-details: NK1 receptor affinity, displacement of 125I-labelled substance P on IM-9 cells
- Format: binding
- particulars: human lymphoblastoma cells (IM-9) with cloned NK1 receptors
- Experimental: Results of investigations into the compound according to the invention: The receptor affinity for the NK1 receptor (substance P receptor) is determined on human lymphoblastoma cells (IM-9) with cloned NK1 receptors, by measuring the displacement of ^125I-labelled substance P. The Ki values thus obtained show the efficacy of the compounds.
Only the number, expressed in nM, is required.

Sample records with Ki:
CN(CCc1cc(C(F)(F)F)cc(C(F)(F)F)c1)C(=O)[C@H](c1ccccc1)N1CCN(/C(=N/C(=O)c2ccccc2)N(C)C)CC1.Cl = 1.11
CN(CCc1cc(C(F)(F)F)cc(C(F)(F)F)c1)C(=O)C(c1ccccc1)N1CCN(/C(=N/C(=O)c2ccccc2)NCc2ccccc2)CC1 (stereo not drawn) = 13.2

Now look at this one.
Summary for this compound, CN(CCc1cc(C(F)(F)F)cc(C(F)(F)F)c1)C(=O)[C@H](c1ccccc1)N1CCN(C2=NCCN2C)CC1 : Ki is 0.19
